# System: E. coli
# test.description: MIC values, E. coli (Tables 1-4)
# Format: cell-based
metric.name: MIC E. coli

**Q:** For the molecule shown here, CO[C@H]1/C=C/O[C@@]2(C)Oc3c(C)c(O)c4c(=O)c(c5oc6cc(N7CCC(NC(=O)N8CCN(C)CC8)CC7)cc(O)c6nc-5c4c3C2=O)NC(=O)/C(C)=C\C=C\[C@H](C)[C@H](O)[C@@H](C)[C@@H](O)[C@@H](C)[C@H](OC(C)=O)[C@@H]1C [Compound 50] , give the reported MIC E. coli.
**A:** >8 µg/mL

**Q:** One more molecule: CCOC(=O)NCC1CCN(c2cc(O)c3nc4c5c6c7c(C)c(O)c5c(=O)c(c-4oc3c2)NC(=O)/C(C)=C\C=C\[C@H](C)[C@H](O)[C@@H](C)[C@@H](O)[C@@H](C)[C@H](OC(C)=O)[C@H](C)[C@@H](OC)/C=C/O[C@@](C)(O7)C6=O)CC1 [Compound 51]
**A:** 8 µg/mL

**Q:** One more molecule: CO[C@H]1/C=C/O[C@@]2(C)Oc3c(C)c(O)c4c(=O)c(c5oc6cc(N7CCNCC7)cc(O)c6nc-5c4c3C2=O)NC(=O)/C(C)=C\C=C\[C@H](C)[C@H](O)[C@@H](C)[C@@H](O)[C@@H](C)[C@H](O)[C@@H]1C [Compound 107]
**A:** 4 µg/mL

**Q:** One more molecule: CCCNC(=O)NC1CCN(c2cc(O)c3nc4c5c6c7c(C)c(O)c5c(=O)c(c-4oc3c2)NC(=O)/C(C)=C\C=C\[C@H](C)[C@H](O)[C@@H](C)[C@@H](O)[C@@H](C)[C@H](OC(C)=O)[C@H](C)[C@@H](OC)/C=C/O[C@@](C)(O7)C6=O)CC1 [Compound 28]
**A:** >8 µg/mL

**Q:** One more molecule: CO[C@H]1/C=C/O[C@@]2(C)Oc3c(C)c(O)c4c(=O)c(c5oc6cc(N7CCC(NS(C)(=O)=O)CC7)cc(O)c6nc-5c4c3C2=O)NC(=O)/C(C)=C\C=C\[C@H](C)[C@H](O)[C@@H](C)[C@@H](O)[C@@H](C)[C@H](O)[C@@H]1C [Compound 27]
**A:** >8 µg/mL

**Q:** One more molecule: CCOc1c(N2CCN(CCOC)CC2)ccc2nc3c4c5c6c(C)c(O)c4c(=O)c(c-3oc12)NC(=O)/C(C)=C\C=C\[C@H](C)[C@H](O)[C@@H](C)[C@@H](O)[C@@H](C)[C@H](O)[C@H](C)[C@@H](OC)/C=C/O[C@@](C)(O6)C5=O [Compound 96]
**A:** >8 µg/mL

**Q:** One more molecule: CO[C@H]1/C=C/O[C@@]2(C)Oc3c(C)c(O)c4c(=O)c(c5oc6cc(N7CCC(NC(=O)SC)CC7)cc(O)c6nc-5c4c3C2=O)NC(=O)/C(C)=C\C=C\[C@H](C)[C@H](O)[C@@H](C)[C@@H](O)[C@@H](C)[C@H](OC(C)=O)[C@@H]1C [Compound 45]
**A:** 8 µg/mL

**Q:** One more molecule: CCCC(=O)NC1CCN(c2cc(O)c3nc4c5c6c7c(C)c(O)c5c(=O)c(c-4oc3c2)NC(=O)/C(C)=C\C=C\[C@H](C)[C@H](O)[C@@H](C)[C@@H](O)[C@@H](C)[C@H](OC(C)=O)[C@H](C)[C@@H](OC)/C=C/O[C@@](C)(O7)C6=O)CC1 [Compound 24]
**A:** >8 µg/mL
